system: NB39; assay: Cytotoxicity against human NB39 cells assessed as cell viability after 48 hrs by MTT assay; type: functional, cell-based
The source made the active and inactive calls. The calls are words filed in the database; no cut-off is given here.
# valid calls are Yes for active, No for inactive; nothing else

Here's what some known entries look like.
lineNotation	testedOn	category
O=C1C(c2c(O)[nH]c3ccccc23)=Nc2ccc(Br)cc21	NB39	No
COc1ccc2c(c1)/C(=C1/Nc3ccccc3/C1=N\O)C(=O)N2	NB39	Yes
O=C1C(c2c(O)[nH]c3c(Br)cccc23)=Nc2ccccc21	NB39	No
O=C1C(c2c(O)[nH]c3ccccc23)=Nc2cc(Br)ccc21	NB39	No
O=Nc1c(-c2c(O)[nH]c3ccccc23)[nH]c2ccccc12	NB39	Yes
O=C1C(c2c(O)[nH]c3cc(Br)ccc23)=Nc2ccccc21	NB39	No
O=C1Nc2cc(Br)ccc2/C1=C1/Nc2ccccc2/C1=N\O	NB39	Yes
COc1ccc2c(c1)C(=N\O)/C(=C1/C(=O)Nc3ccccc31)N2	NB39	No
O=C1C(c2c(O)[nH]c3ccc(Br)cc23)=Nc2ccccc21	NB39	No

Consider now this further molecule.
Prompt: Identify the outcome logged in this assay for the molecule shown: COc1cccc2c1NC(=O)/C2=C1\Nc2ccccc2\C1=N/O
Completion: Yes
